Assay System: PXR-LBD-SRC1p (Homo sapiens)
Sequence (O75469 with tags, fused parts or gaps): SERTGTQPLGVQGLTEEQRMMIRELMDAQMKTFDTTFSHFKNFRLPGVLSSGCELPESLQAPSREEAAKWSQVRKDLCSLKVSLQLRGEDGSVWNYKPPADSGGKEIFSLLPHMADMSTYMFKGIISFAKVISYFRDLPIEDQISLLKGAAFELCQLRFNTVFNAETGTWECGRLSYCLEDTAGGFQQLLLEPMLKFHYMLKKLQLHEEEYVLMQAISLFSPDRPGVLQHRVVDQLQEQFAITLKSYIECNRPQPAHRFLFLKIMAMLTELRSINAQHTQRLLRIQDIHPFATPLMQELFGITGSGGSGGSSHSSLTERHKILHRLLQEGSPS
Test Method Notes: Isothermal titration calorimetry
Format: binding
Condition Summary: from KD by ΔG° = -RTlnKD, direct ITC
Property Label: ΔG° (kcal/mol)

{"columns": ["Compound", "Property Label", "Endpoint Unit", "Reported Measurement"],
 "data": [
  ["O=C1Nc2ccc(Cl)cc2[C@@](C#CC2CC2)(C(F)(F)F)O1 [EFV, reference compound]", "ΔG°", "kcal/mol", -6.9],
  ["O=C1Oc2ccc(Cl)cc2C(C#CC2CC2)(C(F)(F)F)O1 (centres unmarked)", "ΔG°", "kcal/mol", -6.8],
  ["FC(F)(F)[C@@]1(C#CC2CC2)OCNc2ccc(Cl)cc21", "ΔG°", "kcal/mol", -6.6],
  ["O=C1Nc2c(O)cc(Cl)cc2[C@@](C#CC2CC2)(C(F)(F)F)O1", "ΔG°", "kcal/mol", -6.9],
  ["CCCC#CC1(C(F)(F)F)OC(=O)Nc2ccc(Cl)cc21 (centres unmarked)", "ΔG°", "kcal/mol", -5.6]
]}

====

Assay System: UniProtKB O75469
Test Method Notes: Isothermal titration calorimetry
Format: binding
Condition Summary: direct ITC, 25°C
Listed here: items and their measured -TΔS°.

{"columns": ["Compound", "-TΔS°"],
 "data": [
  ["CCCC#CC1(C(F)(F)F)OC(=O)Nc2ccc(Cl)cc21 (centres unmarked) [analog 4]", "−4.5 ±0.2 kcal/mol•K"],
  ["O=C1Nc2ccc(Cl)cc2[C@@](C#CC2CC2)(C(F)(F)F)O1 [EFV, reference compound]", "−4.9 ±0.4 kcal/mol•K"],
  ["O=C1Nc2c(O)cc(Cl)cc2[C@@](C#CC2CC2)(C(F)(F)F)O1 [8-OHEFV]", "−3.8 ± 1.5 kcal/mol•K"],
  ["O=C1Oc2ccc(Cl)cc2C(C#CC2CC2)(C(F)(F)F)O1 (centres unmarked) [analog 15]", "−5.1 ±0.2 kcal/mol•K"],
  ["FC(F)(F)[C@@]1(C#CC2CC2)OCNc2ccc(Cl)cc21 [analog 8]", "−4.8 ±0.3 kcal/mol•K"]
]}

====

Assay System: UniProt:O75469
Test Method Notes: Isothermal titration calorimetry
Format: binding
Condition Summary: direct ITC, 25°C
Please use Criterion met for ΔH° under -2 kcal/mol and Criterion not met for everything else, ties included.

{"columns": ["Compound", "Assay System", "Class Assignment"],
 "data": [
  ["FC(F)(F)[C@@]1(C#CC2CC2)OCNc2ccc(Cl)cc21 [analog 8]", "UniProt:O75469", "Criterion not met"],
  ["O=C1Oc2ccc(Cl)cc2C(C#CC2CC2)(C(F)(F)F)O1 (centres unmarked) [analog 15]", "UniProt:O75469", "Criterion not met"],
  ["O=C1Nc2ccc(Cl)cc2[C@@](C#CC2CC2)(C(F)(F)F)O1 [EFV, reference compound]", "UniProt:O75469", "Criterion met"],
  ["CCCC#CC1(C(F)(F)F)OC(=O)Nc2ccc(Cl)cc21 (centres unmarked) [analog 4]", "UniProt:O75469", "Criterion not met"],
  ["O=C1Nc2c(O)cc(Cl)cc2[C@@](C#CC2CC2)(C(F)(F)F)O1 [8-OHEFV]", "UniProt:O75469", "Criterion met"]
]}
